test system: OVCAR-5; experiment: NCI-60 SRB screen: ovarian cancer OVCAR-5; type: cell-based, human; conditions: Homo sapiens; OVCAR-5; five concentrations, 48 h, SRB; read-out: GI50
Exercise: state measured GI50 for each of the molecules provided.
API: value field is a number in µM; no unit string.

Exercise: State the recorded GI50 for this entry: C=C(C)[C@@H]1CC[C@]2(C(=O)NCCCN)CC[C@]3(C)[C@H](CC[C@@H]4[C@@]5(C)CCC(=O)C(C)(C)[C@@H]5CC[C@]43C)[C@@H]12
Solution: 14.8

Exercise: State the recorded GI50 for this entry: C=C(C)[C@@H]1CC[C@]2(C(=O)NCCNCCNCCN)CC[C@]3(C)[C@H](CC[C@@H]4[C@@]5(C)CCC(=O)C(C)(C)[C@@H]5CC[C@]43C)[C@@H]12
Solution: 8.78

Exercise: State the recorded GI50 for this entry: CC(=O)OCC12CCC(C(C)C(N)=O)C1C1CCC3C4(C)CCC(OC(C)=O)C(C)(C)C4CCC3(C)C1(C)CC2 (centres unmarked)
Solution: 14.4

Exercise: State the recorded GI50 for this entry: C=C(C)[C@@H]1CC[C@]2(C(=O)NCCNCCNCCN)CC[C@]3(C)[C@H](CC[C@@H]4[C@@]5(C)CC[C@H](O)C(C)(C)[C@@H]5CC[C@]43C)[C@@H]12
Solution: 18.6

Exercise: State the recorded GI50 for this entry: C=C(C)[C@@H]1CC[C@]2(C(=O)OC)CC[C@]3(C)[C@H](CC[C@@H]4[C@@]5(C)CCC(=NOCCC(=NOCCC#N)NCCC#N)C(C)(C)[C@@H]5CC[C@]43C)[C@@H]12
Solution: 16.7
